System: klf2 promoter-luciferase construct in A204 cells
Test: klf2 reporter gene induction (p21 versus klf2 selectivity)
Type: cell-based
Settings: relative selectivity at 10 micromolar compared with SNDX-275 (p21/klf2 ratio defined as 1.0)
Protocol: klf2 Reporter Gene Induction By Novel Compounds The novel compounds of the present invention were tested for their ability to induce klf2 gene expression using a reporter gene assay involving A204 cells transfected with a klf2 promoter-luciferase construct. The klf2 promoter contained the MEF2 binding site for HDAC3/class IIa HDAC complex. […]
assay.metric: p21/klf2 (RP10)
Respond numerically, and do not add a unit to the figure.

[
  {
    "molecule": "CCN(CC)C1CCN(C(C(=O)Nc2ccc(Cl)cc2)c2ccc(/C=C/C(=O)Nc3ccccc3N)cc2)C1 (stereo not shown)",
    "p21/klf2 (RP10)": 1.2
  },
  {
    "molecule": "CCN(CCO)C1CCN(C(C(=O)Nc2ccc(Br)cc2)c2ccc(/C=C/C(=O)Nc3ccccc3N)cc2)C1 (stereo not shown)",
    "p21/klf2 (RP10)": 1.4
  },
  {
    "molecule": "Nc1ccccc1NC(=O)/C=C/c1ccc(C(C(=O)Nc2ccc(Br)cc2)N2CCC(N3CCCCC3)C2)cc1 (stereo not shown)",
    "p21/klf2 (RP10)": 0.1
  },
  {
    "molecule": "CCN(CC)C1CCN(C(C(=O)Nc2ccc(F)cc2)c2ccc(/C=C/C(=O)Nc3ccccc3N)cc2)C1 (stereo not shown)",
    "p21/klf2 (RP10)": 1.0
  },
  {
    "molecule": "CCN(CC)C1CCN(C(C(=O)Nc2ccc(C(F)(F)F)cc2)c2ccc(/C=C/C(=O)Nc3ccccc3N)cc2)C1 (stereo not shown)",
    "p21/klf2 (RP10)": 2.0
  }
]

// recorded p21/klf2 (RP10) for CN(C)[C@@H]1CCN(C(C(=O)Nc2ccc(C(F)(F)F)cc2)c2ccc(/C=C/C(=O)Nc3ccccc3N)cc2)C1 (stereo partly shown) : 2.9

// recorded p21/klf2 (RP10) for CCN(CC)C1CCN(C(C(=O)Nc2ccc(C#N)cc2)c2ccc(/C=C/C(=O)Nc3ccccc3N)cc2)C1 (stereo not shown) : 0.9
